Listed here are molecules together with their documented Percentage (glucose uptake, control = 100).
system: Caco2 cells; experiment: Glucose uptake assay; format: cell-based, human; conditions: compound 1 μM
Give your result in % as a bare value.

Request: Hello, I am looking for reported Percentage (glucose uptake, control = 100) with Caco2 cells for CC(C)(O)[C@@H]1CC[C@](C)([C@H]2[C@@H](O)C[C@@]3(C)[C@@H]4C[C@H](O[C@@H]5O[C@H](CO)[C@@H](O)[C@H](O)[C@H]5O)[C@H]5C(C)(C)[C@@H](O[C@@H]6OC[C@@H](O)[C@H](O)[C@H]6O)CC[C@@]56C[C@@]46CC[C@]23C)O1 [AS4, astragaloside IV] . Could you help?
Result: 141.27

Switching to the query record.
Request: Hello, I am looking for reported Percentage (glucose uptake, control = 100) with Caco2 cells for CC(=O)O[C@@H]1[C@@H](O)[C@H](O[C@H]2CC[C@]34C[C@]35CC[C@]3(C)[C@@H]([C@@]6(C)CC[C@@H](C(C)(C)O)O6)[C@@H](O)C[C@@]3(C)[C@@H]5C[C@H](O[C@@H]3O[C@H](CO)[C@@H](O)[C@H](O)[C@H]3O)[C@H]4C2(C)C)OC[C@H]1O [IsoAS2, isoastragaloside II] . Could you help?
Result: 96.55

====

system: Caco2 cells; test: Glucose uptake assay; format: cell-based, human; settings: compound 1 μM
Listed here are molecules together with their documented Percentage (glucose uptake, control = 100).
Give your result in % as a bare value.

Worked examples follow.
Request: Which Percentage (glucose uptake, control = 100) value is on record for CC(C)(O)C1CC[C@](C)(C2[C@@H](O)C[C@@]3(C)C4C[C@H](OC5OC(CO)C(O)C(O)C5O)C5C(C)(C)[C@@H](O)CCC56CC46CC[C@]23C)O1 (stereo partly drawn) ?
Result: 145.68

Request: Which Percentage (glucose uptake, control = 100) value is on record for CC(=O)OC1C(O)COC(OC2CCC34CC35CCC3(C)C(C6(C)CCC(C(C)(C)O)O6)C(O)CC3(C)C5CC(OC3OC(CO)C(O)C(O)C3O)C4C2(C)C)C1OC(C)=O (stereo not drawn) [AS1, astragaloside I] ?
Result: 98.52

Switching to the query record.
Request: Which Percentage (glucose uptake, control = 100) value is on record for CC(C)(O)[C@@H]1CC[C@](C)([C@H]2[C@@H](O)C[C@@]3(C)[C@@H]4C[C@H](O[C@@H]5O[C@H](CO)[C@@H](O)[C@H](O)[C@H]5O)[C@H]5C(C)(C)[C@@H](O[C@@H]6OC[C@@H](O)[C@H](O)[C@H]6O[C@@H]6O[C@H](CO)[C@@H](O)[C@H](O)[C@H]6O)CC[C@@]56C[C@@]46CC[C@]23C)O1 [AS6, astragaloside VI] ?
Result: 122.49

====

System: Caco2 cells
Assay: Folate uptake assay
Format: cell-based, human
Conditions: compound 0.1 μM, 2 days; 5 μM folate, pH 6.0
Description: To evaluate the effect of the isolated astragaloside compound on the uptake of nutrient substances across the intestinal lumen, Caco-2 cells were grown on permeable filter as an experimental model. […] These cells form monolayers with well-developed tight-junctions, and have been evaluated in details as an in vitro model to study both transcellular transport of nutrients and drugs in intestinal lumen. […]
QUANTITY NAME: Uptake rate (folate) (pmol/mg/min)
Give your result in pmol/mg/min as a bare value.

Request: Which Uptake rate (folate) value is on record for CC(=O)O[C@H]1[C@H](O[C@H]2CC[C@]34C[C@]35CC[C@]3(C)[C@@H]([C@@]6(C)CC[C@@H](C(C)(C)O)O6)[C@@H](O)C[C@@]3(C)[C@@H]5C[C@H](O[C@@H]3O[C@H](CO)[C@@H](O)[C@H](O)[C@H]3O)[C@H]4C2(C)C)OC[C@@H](OC(C)=O)[C@@H]1O [IsoAS1, isoastragaloside I] ?
Result: 73.460

Request: Which Uptake rate (folate) value is on record for CC(=O)O[C@H]1[C@H](O[C@H]2CC[C@]34C[C@]35CC[C@]3(C)[C@@H]([C@@]6(C)CC[C@@H](C(C)(C)O)O6)[C@@H](O)C[C@@]3(C)[C@@H]5C[C@H](O[C@@H]3O[C@H](CO)[C@@H](O)[C@H](O)[C@H]3O)[C@H]4C2(C)C)OC[C@@H](O)[C@@H]1O [AS2, astragaloside II] ?
Result: 69.970

Request: Which Uptake rate (folate) value is on record for CC(C)(O)[C@@H]1CC[C@](C)([C@H]2[C@@H](O)C[C@@]3(C)[C@@H]4C[C@H](O[C@@H]5O[C@H](CO)[C@@H](O)[C@H](O)[C@H]5O)[C@H]5C(C)(C)[C@@H](O[C@@H]6OC[C@@H](O)[C@H](O)[C@H]6O)CC[C@@]56C[C@@]46CC[C@]23C)O1 [AS4, astragaloside IV] ?
Result: 75.710

Switching to the query record.
Request: Which Uptake rate (folate) value is on record for CC(C)(O)C1CC[C@](C)(C2[C@@H](O)C[C@@]3(C)C4C[C@H](OC5OC(CO)C(O)C(O)C5O)C5C(C)(C)[C@@H](O)CCC56CC46CC[C@]23C)O1 (stereo partly shown) ?
Result: 84.030
